Assay: Cmax in rat at 3 mg/kg, po
Assay type: ADME, organism-based
Parameters: dose 3 mg/kg, route oral
Details: in vivo
Parameter: Cmax. Scope: all listed entries.
Property: Cmax (nM)

> print(dat)
                  compound.structure.string  test.result
1  Cc1ccc(-c2cc(Br)ccc2OCc2ccc(F)cc2)n1-c1cc(C(=O)O)ccc1F          230
2  Cc1ccc(-c2cc(Cl)ccc2OCc2ccccc2)n1-c1cc(Br)cc(C(=O)O)c1          310
3  CC(=O)Nc1cc(C(=O)O)cc(-n2c(C)ccc2-c2cc(Cl)ccc2OCc2ccccc2)c1          580
